- TARGET DESC: human CD33 variant M120V (human, UniProt P20138 18-364)
- Sequence (P20138 18-364 M120V limits assumed): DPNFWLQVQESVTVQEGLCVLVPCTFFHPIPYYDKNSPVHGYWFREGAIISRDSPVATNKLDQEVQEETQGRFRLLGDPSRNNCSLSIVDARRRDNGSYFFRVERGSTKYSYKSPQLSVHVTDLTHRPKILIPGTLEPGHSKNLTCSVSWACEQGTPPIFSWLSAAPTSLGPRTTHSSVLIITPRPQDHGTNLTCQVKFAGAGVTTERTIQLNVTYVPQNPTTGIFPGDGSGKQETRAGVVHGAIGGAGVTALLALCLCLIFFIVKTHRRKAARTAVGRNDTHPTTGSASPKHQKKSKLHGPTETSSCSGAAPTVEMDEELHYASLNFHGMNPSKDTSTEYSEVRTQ
- MEASUREMENT PROTOCOL: flow cytometry, IgG on cells expressing the mutant
Give Mean % WT Binding for every item shown.

Recorded Mean % WT Binding, per entry:
BINDER: Refmab #3 (antibody, human IgG1, V domains shown, Tested in IgG format; human IgG1 Fc silent (PG-LALA)) VH: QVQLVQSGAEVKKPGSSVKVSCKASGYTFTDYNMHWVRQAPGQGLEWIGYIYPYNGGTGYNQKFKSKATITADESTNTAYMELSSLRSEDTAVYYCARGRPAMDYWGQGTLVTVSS VL: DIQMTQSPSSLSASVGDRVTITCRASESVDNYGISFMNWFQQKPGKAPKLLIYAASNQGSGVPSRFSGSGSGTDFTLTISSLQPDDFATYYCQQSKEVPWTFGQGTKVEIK
Mean % WT Binding: 51.1 % of WT
--
BINDER: Refmab #2 (antibody, human IgG1, V domains shown, Tested in IgG format; human IgG1 Fc silent (PG-LALA)) VH: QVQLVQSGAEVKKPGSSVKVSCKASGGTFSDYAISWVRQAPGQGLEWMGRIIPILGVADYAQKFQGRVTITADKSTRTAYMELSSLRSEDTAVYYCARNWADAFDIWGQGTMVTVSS VL: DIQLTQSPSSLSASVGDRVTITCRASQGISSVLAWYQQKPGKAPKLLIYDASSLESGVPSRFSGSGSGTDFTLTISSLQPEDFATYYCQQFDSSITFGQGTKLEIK
Mean % WT Binding: 95.5 % of WT

// fetch Mean % WT Binding given entry Refmab #1 (antibody, human IgG1, V domains shown, Tested in IgG format; human IgG1 (Absolute Antibody hP67.6, Cat. No. Ab00283-10.0); also called hP67.6) VH: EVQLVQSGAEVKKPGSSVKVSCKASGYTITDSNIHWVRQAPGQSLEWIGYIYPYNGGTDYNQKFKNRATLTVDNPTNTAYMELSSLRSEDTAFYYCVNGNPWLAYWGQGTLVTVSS VL: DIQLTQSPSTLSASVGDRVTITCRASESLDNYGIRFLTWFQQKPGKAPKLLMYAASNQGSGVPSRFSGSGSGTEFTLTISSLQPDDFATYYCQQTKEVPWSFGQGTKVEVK
98.7 % of WT
